Target: rat TRPA1 (Rattus norvegicus, UniProt Q6RI86)
Sequence (Q6RI86 whole entry): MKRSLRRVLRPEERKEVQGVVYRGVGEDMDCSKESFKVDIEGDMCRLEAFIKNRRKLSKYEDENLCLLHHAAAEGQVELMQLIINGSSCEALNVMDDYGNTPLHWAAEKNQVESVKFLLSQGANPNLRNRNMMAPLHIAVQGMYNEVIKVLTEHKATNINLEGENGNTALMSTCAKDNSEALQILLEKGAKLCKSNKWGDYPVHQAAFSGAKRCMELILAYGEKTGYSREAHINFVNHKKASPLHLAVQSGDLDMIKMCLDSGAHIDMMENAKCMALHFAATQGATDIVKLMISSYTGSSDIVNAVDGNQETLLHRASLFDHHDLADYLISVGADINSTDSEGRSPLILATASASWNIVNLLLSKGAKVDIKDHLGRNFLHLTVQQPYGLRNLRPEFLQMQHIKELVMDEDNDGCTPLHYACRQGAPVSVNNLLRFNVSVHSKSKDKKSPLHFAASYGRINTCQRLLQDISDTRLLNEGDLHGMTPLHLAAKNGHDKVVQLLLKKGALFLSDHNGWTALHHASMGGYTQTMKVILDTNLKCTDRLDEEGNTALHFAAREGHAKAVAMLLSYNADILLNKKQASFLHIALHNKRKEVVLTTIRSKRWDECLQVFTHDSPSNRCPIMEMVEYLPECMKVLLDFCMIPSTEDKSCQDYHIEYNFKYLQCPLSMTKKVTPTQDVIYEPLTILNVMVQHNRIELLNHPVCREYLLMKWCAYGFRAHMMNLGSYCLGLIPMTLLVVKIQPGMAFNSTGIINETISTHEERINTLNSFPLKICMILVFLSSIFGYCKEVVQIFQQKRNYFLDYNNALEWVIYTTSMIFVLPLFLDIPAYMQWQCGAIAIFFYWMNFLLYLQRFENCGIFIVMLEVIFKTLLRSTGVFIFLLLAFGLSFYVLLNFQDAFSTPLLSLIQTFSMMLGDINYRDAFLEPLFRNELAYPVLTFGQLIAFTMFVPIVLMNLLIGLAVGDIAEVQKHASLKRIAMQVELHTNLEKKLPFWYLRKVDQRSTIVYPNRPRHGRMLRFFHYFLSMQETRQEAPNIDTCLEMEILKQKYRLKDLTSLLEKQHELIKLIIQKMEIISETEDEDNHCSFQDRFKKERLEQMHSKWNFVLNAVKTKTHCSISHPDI
Assay: 45Calcium uptake assay: inhibition of AITC induced cellular uptake of radioactive calcium, rat TRPA1 expressing CHO cells
Conditions: class symbols, AITC 10 μM
Quick reference for IC50 among some compounds

{"compound": "Cc1oc2c(c1CC(=O)Nc1nc(-c3cc(F)c(C(F)(F)F)c(F)c3)cs1)c(=O)n(C)c(=O)n2C [Example 84]", "IC50": "< 50 nM"}
{"compound": "Cn1c(=O)c2c(CC(=O)Nc3nc(-c4ccc(Cl)c(Cl)c4)cs3)coc2n(C)c1=O [Example 13]", "IC50": "> 100 nM"}
{"compound": "Cc1oc2c(c1CC(=O)Nc1nc(-c3ccc(Cl)c(C(F)(F)F)c3)cs1)c(=O)n(C)c(=O)n2C [Example 64]", "IC50": "< 50 nM"}
{"compound": "Cn1c(=O)c2c(CC(=O)Nc3nc(-c4cc(F)c(OCC5CC5)c(F)c4)cs3)coc2n(C)c1=O [Example 39]", "IC50": "> 100 nM"}
{"compound": "Cn1c(=O)c2c(CC(=O)Nc3nc(-c4cc(F)c(OC(F)F)c(F)c4)cs3)coc2n(C)c1=O [Example 37]", "IC50": "50 to 100 nM"}
{"compound": "Cc1oc2c(c1CC(=O)Nc1nc(-c3cc(F)c(OCC(F)(F)F)c(F)c3)cs1)c(=O)n(C)c(=O)n2C [Example 87]", "IC50": "< 50 nM"}
{"compound": "Cc1oc2c(c1CC(=O)Nc1nc(-c3ccc(OCC(F)(F)F)c(Cl)c3)cs1)c(=O)n(C)c(=O)n2C [Example 74]", "IC50": "< 50 nM"}
{"compound": "Cn1c(=O)c2c(CC(=O)Nc3nc(-c4cc(F)c(OCCC(F)(F)F)c(F)c4)cs3)coc2n(C)c1=O [Example 49]", "IC50": "< 50 nM"}
{"compound": "Cn1c(=O)c2c(CC(=O)Nc3nc(-c4ccc(OC(F)F)c(Cl)c4)cs3)coc2n(C)c1=O [Example 24]", "IC50": "> 100 nM"}
{"compound": "CC(C)COc1c(F)cc(-c2csc(NC(=O)Cc3coc4c3c(=O)n(C)c(=O)n4C)n2)cc1F [Example 40]", "IC50": "< 50 nM"}
{"compound": "Cc1oc2c(c1CC(=O)Nc1nc(-c3ccc(Cl)c(OC(F)(F)F)c3)cs1)c(=O)n(C)c(=O)n2C [Example 69]", "IC50": "< 50 nM"}
{"compound": "Cc1oc2c(c1CC(=O)Nc1nc(-c3ccc(OC(F)F)c(Cl)c3)cs1)c(=O)n(C)c(=O)n2C [Example 72]", "IC50": "> 100 nM"}
{"compound": "Cn1c(=O)c2c(CC(=O)Nc3nc(-c4ccc(OCC(F)(F)F)c(F)c4)cs3)coc2n(C)c1=O [Example 30]", "IC50": "> 100 nM"}
{"compound": "Cc1oc2c(c1CC(=O)Nc1nc(-c3ccc(Cl)c(Cl)c3)cs1)c(=O)n(C)c(=O)n2C [Example 54]", "IC50": "50 to 100 nM"}
{"compound": "Cn1c(=O)c2c(CC(=O)Nc3nc(-c4cc(F)c(OCC(C)(C)C)c(F)c4)cs3)coc2n(C)c1=O [Example 42]", "IC50": "< 50 nM"}

###

The compounds listed here are annotated with their IC50.
Target: rat TRPA1 (Rattus norvegicus)
Test: 45Calcium uptake assay: inhibition of AITC induced cellular uptake of radioactive calcium, rat TRPA1 expressing CHO cells
Details: class symbols, AITC 10 μM
parameter measured: IC50

{"smiles text": "Cc1oc2c(c1CC(=O)Nc1nc(-c3ccc(C(F)(F)F)cc3F)cs1)c(=O)n(C)c(=O)n2C", "assayed system": "rat TRPA1 (Rattus norvegicus)", "parameter measured": "IC50", "recorded measurement": "0.05 to 0.1 µM"}
{"smiles text": "Cn1c(=O)c2c(CC(=O)Nc3nc(-c4cc(Cl)c(OCC(C)(C)C)c(Cl)c4)cs3)coc2n(C)c1=O", "assayed system": "rat TRPA1 (Rattus norvegicus)", "parameter measured": "IC50", "recorded measurement": "0.05 to 0.1 µM"}
{"smiles text": "Cn1c(=O)c2c(CC(=O)Nc3nc(-c4ccc(OCC(F)(F)F)c(Br)c4)cs3)coc2n(C)c1=O", "assayed system": "rat TRPA1 (Rattus norvegicus)", "parameter measured": "IC50", "recorded measurement": "< 0.05 µM"}
{"smiles text": "Cn1c(=O)c2c(CC(=O)Nc3nc(-c4cccc(C(F)(F)F)c4F)cs3)coc2n(C)c1=O", "assayed system": "rat TRPA1 (Rattus norvegicus)", "parameter measured": "IC50", "recorded measurement": "< 0.05 µM"}
{"smiles text": "Cc1oc2c(c1CC(=O)Nc1nc(-c3cc(F)cc(C(F)(F)F)c3)cs1)c(=O)n(C)c(=O)n2C", "assayed system": "rat TRPA1 (Rattus norvegicus)", "parameter measured": "IC50", "recorded measurement": "< 0.05 µM"}
{"smiles text": "Cc1oc2c(c1CC(=O)Nc1nc(-c3ccc(C(F)(F)F)c(F)c3)cs1)c(=O)n(C)c(=O)n2C", "assayed system": "rat TRPA1 (Rattus norvegicus)", "parameter measured": "IC50", "recorded measurement": "0.05 to 0.1 µM"}
{"smiles text": "Cc1oc2c(c1CC(=O)Nc1nc(-c3cc(F)c(F)cc3F)cs1)c(=O)n(C)c(=O)n2C", "assayed system": "rat TRPA1 (Rattus norvegicus)", "parameter measured": "IC50", "recorded measurement": "0.05 to 0.1 µM"}

###

Biological target: rat TRPA1 (Rattus norvegicus)
Construct: expressed in transfected cells; host or cells: CHO cells (Zeocin selection)
Assay: 45Calcium uptake assay: inhibition of AITC induced cellular uptake of radioactive calcium, rat TRPA1 expressing CHO cells
Format: cell-based
Conditions: AITC 10 μM, read-out: rat TRPA1 Percentage inhibition
Protocol: Screening for TRPA1 Antagonist Using the ^45Calcium Uptake Assay: The inhibition of TRPA1 receptor activation was measured as inhibition of allyl isothiocyanate (AITC) induced cellular uptake of radioactive calcium. Test compounds were dissolved in 100% DMSO to prepare 10 mM stock and then diluted using plain medium with 0.1% BSA and 1.8 mM CaCl2 to get the desired concentration. […] Radioactivity in the lysate was measured in a Packard TopCount after addition of liquid scintillant. […]
List of inhibition at 1 µM values.
parameter measured: inhibition at 1 µM

{"compound": "Cn1c(=O)c2c(CC(=O)Nc3nc(-c4ccc(F)c(C(F)(F)F)c4)cs3)coc2n(C)c1=O [Example 15]", "recorded measurement": "100%"}
{"compound": "Cn1c(=O)c2c(CC(=O)Nc3nc(-c4ccc(OCC(C)(C)C)c(F)c4)cs3)coc2n(C)c1=O [Example 26]", "recorded measurement": "98.6%"}
{"compound": "Cc1oc2c(c1CC(=O)Nc1nc(-c3ccc(C(F)(F)F)cc3)cs1)c(=O)n(C)c(=O)n2C [Example 50]", "recorded measurement": "99.9%"}
{"compound": "Cc1oc2c(c1CC(=O)Nc1nc(-c3cccc(C(F)(F)F)c3)cs1)c(=O)n(C)c(=O)n2C [Example 51]", "recorded measurement": "100%"}
{"compound": "Cc1oc2c(c1CC(=O)Nc1nc(-c3ccc(OC(F)(F)F)cc3)cs1)c(=O)n(C)c(=O)n2C [Example 53]", "recorded measurement": "100%"}
{"compound": "Cn1c(=O)c2c(CC(=O)Nc3nc(-c4cc(F)cc(C(F)(F)F)c4)cs3)coc2n(C)c1=O [Example 21]", "recorded measurement": "98.9%"}
{"compound": "Cn1c(=O)c2c(CC(=O)Nc3nc(-c4ccc(OC(F)(F)F)cc4)cs3)coc2n(C)c1=O [Example 8]", "recorded measurement": "100%"}
{"compound": "Cn1c(=O)c2c(CC(=O)Nc3nc(-c4ccc(Cl)c(OC(F)(F)F)c4)cs3)coc2n(C)c1=O [Example 19]", "recorded measurement": "98.9%"}
{"compound": "Cn1c(=O)c2c(CC(=O)Nc3nc(-c4cc(F)c(OC(F)F)c(F)c4)cs3)coc2n(C)c1=O [Example 37]", "recorded measurement": "100%"}
{"compound": "Cn1c(=O)c2c(CC(=O)Nc3nc(-c4cc(Cl)c(OC(F)F)c(Cl)c4)cs3)coc2n(C)c1=O [Example 38]", "recorded measurement": "67%"}
{"compound": "Cn1c(=O)c2c(CC(=O)Nc3nc(-c4cc(Cl)c(OCC(C)(C)C)c(Cl)c4)cs3)coc2n(C)c1=O [Example 43]", "recorded measurement": "89.2%"}
{"compound": "Cn1c(=O)c2c(CC(=O)Nc3nc(-c4ccc(Cl)c(C(F)(F)F)c4)cs3)coc2n(C)c1=O [Example 18]", "recorded measurement": "99.9%"}
{"compound": "Cc1oc2c(c1CC(=O)Nc1nc(-c3ccc(F)c(C(F)(F)F)c3)c(C)s1)c(=O)n(C)c(=O)n2C [Example 90]", "recorded measurement": "98%"}
{"compound": "Cn1c(=O)c2c(CC(=O)Nc3nc(-c4ccc(C(F)(F)F)cc4F)cs3)coc2n(C)c1=O [Example 22]", "recorded measurement": "100%"}
{"compound": "Cn1c(=O)c2c(CC(=O)Nc3nc(-c4cc(F)c(OCC(C)(C)C)c(Cl)c4)cs3)coc2n(C)c1=O [Example 44]", "recorded measurement": "71%"}
{"compound": "Cn1c(=O)c2c(CC(=O)Nc3nc(-c4ccc(Cl)c(Cl)c4Cl)cs3)coc2n(C)c1=O [Example 34]", "recorded measurement": "91%"}
